Record form. Attribute: pIC50. Fill in for each entry.
System: Kuramochi cell line
Test: Cell Viability Assay (Cell Titer-Glo, 7 days)
Assay type: cell-based
Details: 168 h, Kuramochi cells, 7 days incubation, read-out: PARG Cell viability (IC50)
Method: Cell viability studies were conducted in Kuramochi cell line. Cells were maintained in RPMI (Hyclone, Catalog #: SH3080901B) supplemented with 10% v/v FBS (AusGeneX, Catalog #: FBS500-S), 1% v/v Penicillin Streptomycin (Gibco, Catalog #: 15140122). […] Cell viability was measured using the Cell Titer-Glo reagent (Promega, Catalog #: G7573) as manufacturer's instructions. Luminescence signal was measured with a multimode plate reader (Perkin Elmer, Envision 2105 or BMG, ClarioStar Plus). […]
pIC50: −log10 of the molar value.

stdin: Please provide the recorded pIC50 for N#CC1(NS(=O)(=O)c2ccc3c4c(C5CCC(O)CC5)ncnc4n(-c4nnc(C(F)F)s4)c3c2)CC1 (stereo not shown) [Example 85] , tested on Kuramochi cell line.
stdout: > 7.00

stdin: Please provide the recorded pIC50 for CC(C)C(=O)N1C[C@@H](C)N(c2ncnc3c2c2ccc(S(=O)(=O)NC4(C#N)CC4)cc2n3-c2nnc(C(F)F)s2)C[C@@H]1C [Example 33] , tested on Kuramochi cell line.
stdout: > 7.00

stdin: Please provide the recorded pIC50 for N#CC1(NS(=O)(=O)c2ccc3c4c(C5CCNCC5)ncnc4n(-c4nnc(C(F)F)s4)c3c2)CC1 [Example 87] , tested on Kuramochi cell line.
stdout: 6.00 to 7.00

stdin: Please provide the recorded pIC50 for N#CC1(NS(=O)(=O)c2ccc3c4c(N5CCc6cc(CO)cnc6C5)ncnc4n(-c4nnc(C(F)F)s4)c3c2)CC1 [Example 181] , tested on Kuramochi cell line.
stdout: 6.00 to 7.00

stdin: Please provide the recorded pIC50 for CC(C)C(=O)N1CCC(c2ncnc3c2c2ccc(S(=O)(=O)NC4(C#N)CC4)cc2n3-c2nnc(C(F)F)s2)CC1 [Example 76] , tested on Kuramochi cell line.
stdout: > 7.00

stdin: Please provide the recorded pIC50 for CN(C)C(=O)N1CCN(c2ncnc3c2c2ccc(S(=O)(=O)NC4(C#N)CC4)cc2n3-c2nnc(C(F)F)s2)CC1 [Example 6] , tested on Kuramochi cell line.
stdout: > 7.00

stdin: Please provide the recorded pIC50 for CN1CCC[C@H]1C(=O)N1CCC(c2ncnc3c2c2ccc(S(=O)(=O)NC4(C#N)CC4)cc2n3-c2nnc(C(F)F)s2)CC1 [Example 112] , tested on Kuramochi cell line.
stdout: 6.00 to 7.00

stdin: Please provide the recorded pIC50 for CO[C@@H]1CCN(C(=O)N2CCC(c3ncnc4c3c3ccc(S(=O)(=O)NC5(C#N)CC5)cc3n4-c3nnc(C(F)F)s3)CC2)C1 [Example 135] , tested on Kuramochi cell line.
stdout: > 7.00

stdin: Please provide the recorded pIC50 for CC(C)C(=O)N1C[C@H](C)N(c2ncnc3c2c2ccc(S(=O)(=O)NC4(C#N)CC4)cc2n3-c2nnc(C(F)F)s2)C[C@H]1C [Example 38] , tested on Kuramochi cell line.
stdout: 6.00 to 7.00

stdin: Please provide the recorded pIC50 for N#CC1(NS(=O)(=O)c2ccc3c4c(C5CCOCC5)ncnc4n(-c4nnc(C(F)F)s4)c3c2)CC1 [Example 79] , tested on Kuramochi cell line.
stdout: > 7.00

stdin: Please provide the recorded pIC50 for COC[C@H]1CN(c2ncnc3c2c2ccc(S(=O)(=O)NC4(C#N)CC4)cc2n3-c2nnc(C(F)F)s2)CCN1C [Example 204] , tested on Kuramochi cell line.
stdout: > 7.00

stdin: Please provide the recorded pIC50 for CC(C)C(=O)N1CCCN(c2ncnc3c2c2ccc(S(=O)(=O)NC4(C#N)CC4)cc2n3-c2nnc(C(F)F)s2)CC1 [Example 25] , tested on Kuramochi cell line.
stdout: 6.00 to 7.00

stdin: Please provide the recorded pIC50 for N#CC1(NS(=O)(=O)c2ccc3c4c(N5CCN6CCOC[C@@H]6C5)ncnc4n(-c4nnc(C(F)F)s4)c3c2)CC1 [Example 162] , tested on Kuramochi cell line.
stdout: > 7.00
